Biological target: α1C Human Adrenergic Receptor (Homo sapiens)
Construct: The entire coding region of α1C (1401 bp); expressed in transfected cells
Experiment: Radioligand binding, [3H]prazosin, cloned human α1C adrenergic receptor
Details: cloned human receptor in LM(tk-) cell membranes, SEM and n in lines below, read-out: pKi alpha-1 1c (converted)
Counter-ions that a name gives are not always drawn.
log10(Ki) values by entry
Values below are the log10 of the recorded Ki, with nM as the unit.

Known log10(Ki) results, listed for orientation:
MOLECULE	RESULT VALUE
COC(=O)C1=C(C)NC(C)=C(C(=O)NCCCN2CCC(c3ccccc3)CC2)C1c1ccc([N+](=O)[O-])cc1 (racemic) [(±)-45, hydrochloride hemihydrate]	-0.63
COC(=O)C1=C(C)NC(C)=C(C(=O)OCCCN2CCC(c3ccccc3)CC2)C1c1ccc([N+](=O)[O-])cc1 (stereo not drawn) [Example 48, hydrochloride hydrate]	-0.28
COC(=O)C1=C(C)NC(C)=C(C(=O)NCCCN2CCC(c3ccccc3)(c3ccccc3)CC2)C1c1ccc(C(=O)OC)cc1 (stereo not drawn)	1.53
COC(=O)C1=C(C)NC(C)=C(C(=O)NCCCN2CCC(c3ccccc3)(c3ccccc3)CC2)C1c1ccncc1 (stereo not drawn)	1.05
COC(=O)C1=C(C)NC(C)=C(C(=O)NCCCN2CCc3ccccc3C2)C1c1ccc([N+](=O)[O-])cc1 (stereo not drawn) [Example 59, hydrochloride hydrate]	2.39

Next, consider the following molecule.
Short answer for COC(=O)C1=C(C)NC(C)=C(C(=O)NCCCN2CCC(c3ccccc3)(c3ccccc3)CC2)C1c1ccc(C#N)cc1 (stereo not drawn) : log10(Ki) was 0.26

---

Structures can show the parent of a compound that is named as a salt.
ENDPOINT LABEL: melting point

Known melting point results, listed for orientation:
MOLECULE	melting point
COC(=O)C1=C(C)NC(C)=C(C(=O)NCCCN2CCCCC2)C1c1ccc([N+](=O)[O-])cc1 (stereo not drawn) (as salt: hydrochloride) (hydrate or solvate) [Example 51]	150 to 150.5 °C
CCC1=C(C(N)=O)C(c2ccc([N+](=O)[O-])cc2)C(C(=O)NCCCN2CCC(C(=O)OC)(c3ccccc3)CC2)=C(CCCCN=[N+]=[N-])N1 (stereo not drawn) [Example 165]	74 to 77 °C

Short answer for COC(=O)C1=C(C)NC(C)=C(C(=O)NCCCN2CCC(c3ccccc3)(c3ccccc3)CC2)C1c1cccnc1 (stereo not drawn) [Example 14] : melting point was 244 to 247 °C (dec.)

---

Target: α1C Human Adrenergic Receptor (Homo sapiens, UniProt P35348)
Construct: The entire coding region of α1C (1401 bp); expressed in transfected cells
Sequence (P35348 whole entry): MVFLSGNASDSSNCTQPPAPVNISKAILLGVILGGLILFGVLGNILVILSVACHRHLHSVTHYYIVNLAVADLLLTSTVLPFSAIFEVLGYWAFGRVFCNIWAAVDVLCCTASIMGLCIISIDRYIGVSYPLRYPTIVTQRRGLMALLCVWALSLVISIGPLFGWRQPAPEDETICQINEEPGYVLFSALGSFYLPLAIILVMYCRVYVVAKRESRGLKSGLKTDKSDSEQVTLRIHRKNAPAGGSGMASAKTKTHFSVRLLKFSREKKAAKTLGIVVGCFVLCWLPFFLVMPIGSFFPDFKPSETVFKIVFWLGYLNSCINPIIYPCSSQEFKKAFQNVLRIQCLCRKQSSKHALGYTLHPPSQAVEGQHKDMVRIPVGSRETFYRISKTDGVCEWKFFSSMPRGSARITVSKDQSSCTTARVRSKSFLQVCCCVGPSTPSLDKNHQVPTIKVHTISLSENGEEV
Experiment: Radioligand binding, [3H]prazosin, cloned human α1C adrenergic receptor
Settings: cloned human receptor in LM(tk-) cell membranes, SEM and n in lines below, read-out: pKi alpha-1 1c (converted)
Counter-ions that a name gives are not always drawn.
Label fulfilled when Ki is strictly below 9 nM; at or above that, label not fulfilled.

Completed entries (count: 5):
COMPOUND	TARGET OR TEST SYSTEM	DISCRETE LABEL
COc1cc2c(cc1OC)CN(CCCNC(=O)C1=C(C)NC(C)=C(C(N)=O)C1c1ccc([N+](=O)[O-])cc1)CC2 (stereo not drawn) [Example 58, hydrochloride]	α1C Human Adrenergic Receptor (Homo sapiens, UniProt P35348)	not fulfilled
COC(=O)C1=C(C)NC(C)=C(C(=O)NCCCN2CCC(c3ccccc3)CC2)C1c1ccc([N+](=O)[O-])cc1 (single isomer, unassigned; (-)) [(−)-45, hydrochloride hemihydrate]	α1C Human Adrenergic Receptor (Homo sapiens, UniProt P35348)	fulfilled
COC(=O)C1=C(C)NC(C)=C(C(=O)NCCCN2CCC(c3ccccc3)(c3ccccc3)CC2)C1c1ccc(C(C)C)cc1 (stereo not drawn) [Example 18]	α1C Human Adrenergic Receptor (Homo sapiens, UniProt P35348)	not fulfilled
COC(=O)C1=C(C)NC(C)=C(C(=O)NCCCN2CCC(c3ccccc3)(c3ccccc3)CC2)C1c1ccc(OC)cc1 (stereo not drawn) [Example 21]	α1C Human Adrenergic Receptor (Homo sapiens, UniProt P35348)	fulfilled
COC(=O)C1=C(C)NC(C)=C(C(=O)NCCCN2CCC(c3ccccc3)CC2)C1c1ccc([N+](=O)[O-])cc1 (single isomer, unassigned; (+)) [(+)-45, hydrochloride hemihydrate]	α1C Human Adrenergic Receptor (Homo sapiens, UniProt P35348)	not fulfilled

Now let's try a different one.
[in] Is Ki strictly under 9 nM for the entry CC1=C(C(N)=O)C(c2cccc([N+](=O)[O-])c2)C(C(=O)NCCCN2CCC(c3ccccc3)CC2)=C(C)N1 (stereo not drawn) [Example 62] ?
[out] fulfilled

Measured values drawn from patent US6608086B2 for this set.
